assay: Cytometry Cell-Based qHTS for Inhibitors of the mTORC1 Signaling Pathway in MEF cells (AID 2668); conditions: mTORC1 pathway readout; series mostly up to 38.3 µM;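 also: Tsc2-/- p53-/- mouse embryonic fibroblasts stably re-expressing wild-type Tsc2; percent cells positive for phospho-rpS6 Ser235/236 relative to propidium iodide stain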
Records with an inconclusive call do not appear. Activity calls are given as the source filed them. Calls follow the shape of the dose curve; as a rule, active = well fitted inhibition curve with a large enough effect; inconclusive = small, poorly fitted or top-dose-only effect; inactive = flat fitted curve, though single readings scatter.
Write down the outcome that applies. Available outcomes: active, inactive

Worked set:
molecule	label
Cc1ccc([N+](=O)[O-])cc1S(=O)(=O)N(C)C	inactive
CC(C)NC[C@H](O)COc1cccc2ccccc12	inactive

Ask: What call does the record list for N=C(N)SCCc1cnc[nH]1 ?
Result: inactive

Ask: What call does the record list for C[C@]12C=CC(=O)C=C1CC[C@@H]1C2=CC[C@]2(C)[C@@H](C(=O)CN3CCN(c4cc(N5CCCC5)nc(N5CCCC5)n4)CC3)CC[C@@H]12 ?
Result: inactive

Ask: What call does the record list for CN(C)CCCc1cc(C(=O)Nc2ccc(-c3ccncc3)cc2)ccc1O ?
Result: inactive

Ask: What call does the record list for O=C(O)/C(=C/c1c(C(=O)O)[nH]c2cc(Cl)cc(Cl)c12)c1ccccc1 ?
Result: inactive

Ask: What call does the record list for CC(N)(Cc1ccc(O)cc1)C(=O)O (centres undefined) ?
Result: inactive

Each recorded value in this set is attributed to PubChem BioAssay (NCATS).
